Tested on: Alopecurus myosuroides (ALOMY)
Test: Post-emergence herbicidal activity, glasshouse pot test
Format: in vivo
Conditions: Alopecurus myosuroides, 312 h, rate 250 g/ha, evaluated after 13 days, glasshouse, read-out: Post-emergence activity ALOMY (100=total damage to plant; 0=no damage to plant)
Classify by measured pest or weed control at 250 g/ha: Criterion met if it is equal to or exceeds 80%, Criterion not met if it is smaller.

Worked examples, 3 molecules total:
CCc1ccc(Oc2ccc(F)cc2Cl)cc1C1=C(O)CCCC1=O [Example A-39]	Criterion not met
CCc1ccc(Oc2cccc(C(F)(F)F)c2)cc1C1=C(O)C(C)(C)OC(C)(C)C1=O [Example A-185]	Criterion not met
CCc1ccc(Oc2ncc(Cl)cc2Cl)cc1C1=C(O)C(C)(C)OC(C)(C)C1=O [Example A-44]	Criterion met

Problem: Is the recorded value of pest or weed control at 250 g/ha equal to or greater than 80% for this molecule? CCc1ccc(Oc2ncc(Cl)cc2C(F)(F)F)cc1C1=C(O)C(C)(C)OC(C)(C)C1=O [Example A-143]
Result: Criterion met

Problem: Is the recorded value of pest or weed control at 250 g/ha equal to or greater than 80% for this molecule? CCc1ccc(Oc2nc3ccc([N+](=O)[O-])cc3s2)cc1C1=C(O)CC2(CCOCC2)CC1=O [Example A-265]
Result: Criterion not met

Problem: Is the recorded value of pest or weed control at 250 g/ha equal to or greater than 80% for this molecule? CCc1ccc(Oc2ccccc2Cl)cc1C1=C(O)C(C)(C)OC(C)(C)C1=O [Example A-6]
Result: Criterion not met

###

Test system: Alopecurus myosuroides (ALOMY)
Test: Pre-emergence herbicidal activity, glasshouse pot test
Format: in vivo
Details: Alopecurus myosuroides, 312 h; Rate 250 g/ha; pre-emergence spray; evaluated after 13 days; read-out: Pre-emergence activity ALOMY (100=total damage to plant; 0=no damage to plant)
Classify by measured pest or weed control at 250 g/ha: t if it is equal to or exceeds 50%, f if it is smaller.

Cc1ccc(Oc2ccc(Cl)cc2Cl)cc1C1=C(O)C(C)(C)OC(C)(C)C1=O [Example A-2]	f

Problem: Is the recorded value of pest or weed control at 250 g/ha equal to or greater than 50% for this molecule? CCc1ccc(Oc2cc(Cl)nc(C)n2)cc1C1=C(O)C(C)(C)OC(C)(C)C1=O [Example A-130]
Result: f

Problem: Is the recorded value of pest or weed control at 250 g/ha equal to or greater than 50% for this molecule? CCc1ccc(Oc2nc3ccc([N+](=O)[O-])cc3s2)cc1C1=C(O)[C@@H]2CC[C@](C)(C1=O)C2(C)C [Example A-325]
Result: t

Problem: Is the recorded value of pest or weed control at 250 g/ha equal to or greater than 50% for this molecule? CCc1ccc(Oc2cccc(C(F)(F)F)n2)cc1C1=C(O)C(C)(C)OC(C)(C)C1=O [Example A-53]
Result: f

Problem: Is the recorded value of pest or weed control at 250 g/ha equal to or greater than 50% for this molecule? CCc1ccc(Oc2nc3cccc(C#N)c3s2)cc1C1=C(O)C(C)(C)OC(C)(C)C1=O [Example A-220]
Result: f

Problem: Is the recorded value of pest or weed control at 250 g/ha equal to or greater than 50% for this molecule? CCc1ccc(Oc2ccc([N+](=O)[O-])cc2)cc1C1=C(O)C(C)(C)OC(C)(C)C1=O [Example A-195]
Result: f

Problem: Is the recorded value of pest or weed control at 250 g/ha equal to or greater than 50% for this molecule? CCc1ccc(Oc2ccc(C(F)(F)F)c(Cl)c2)cc1C1=C(O)CC2(CCOCC2)CC1=O [Example A-278]
Result: t

Problem: Is the recorded value of pest or weed control at 250 g/ha equal to or greater than 50% for this molecule? CCc1ccc(Oc2nc3ccccc3cc2C)cc1C1=C(O)C(C)(C)OC(C)(C)C1=O [Example A-253]
Result: t
